Kindly state IC50 CB4 for each of the entries shown.
# Test system: coxsackievirus type B4 (CB4,JVB)
# EXPERIMENT: In vitro anti-picornavirus activity (MTT), CB4
# Format: cell-based
# SETTINGS: HeLa cells, MTT method, 37° C.
Numbers only, in µg/mL.

Examples from the recorded data:
• Cc1cc(-c2cc(=O)c3cc(C(C)C)ccc3n2C)ccc1OC(C)C = 1.4
• CCn1c(-c2ccsc2)cc(=O)c2cc(C(C)C)ccc21 = 3.0
• CCn1c(-c2ccccc2)c(C)c(=O)c2cc(NCC(C)C)ccc21.O = 3.0
• CCn1c(-c2ccccc2)c(C)c(=O)c2cc(-c3ccccc3)ccc21 = 2.0
• CCn1c(-c2ccccc2)c(C)c(=O)c2c(Cl)c(OCC(C)C)ccc21 = 1.2
• CCn1c(-c2ccccn2)cc(=O)c2cc(C(C)C)ccc21 = 17

List reported IC50 CB4 for each of these molecules:
1. CCn1c2c(c(=O)c3c(C(C)C)c(OC)ccc31)Cc1ccccc1-2
2. CCn1c2c(c(=O)c3cc(CC(C)C)ccc31)Cc1cc(OC)ccc1-2 [Compound B12]
3. CCn1c(-c2cccc(OC)c2)c(C)c(=O)c2cc(C(C)C)ccc21

Response:
0.52
0.63
2.6

----------
Kindly state Cytotoxicity CC50 HeLa-S3 for each of the entries shown.
# Test system: HeLa-S3 cells
# EXPERIMENT: Cytotoxicity (MTT, without virus), HeLa-S3
# SETTINGS: HeLa-S3, no virus, incubated for 4 days

Examples from the recorded data:
• CCn1c(-c2ccc(OC)c(C)c2)cc(=O)c2cc(C(C)C)ccc21 = >4 µg/mL
• CCCc1ccc2c(c1)c(=O)c(C)c(-c1ccccc1)n2CC = 6.5 µg/mL
• CCn1c(-c2ccccc2)c(C)c(=O)c2ccc(C(C)C)cc21 = >10 µg/mL
• Cc1c(-c2ccccc2)n(-c2ccc(F)cc2)c2ccc(C(C)C)cc2c1=O = >2 µg/mL
• Cc1ccc(-n2c(-c3ccccc3)c(C)c(=O)c3cc(C(C)C)ccc32)cc1 = >2.5 µg/mL

List reported Cytotoxicity CC50 HeLa-S3 for each of these molecules:
1. COc1ccc(-c2c(C)c(=O)c3cc(C(C)C)ccc3n2C)cc1
2. CCn1c(-c2ccc(C)s2)cc(=O)c2cc(C(C)C)ccc21
3. CCn1c(-c2ccsc2)cc(=O)c2cc(C(C)C)ccc21

Response:
["7.6 µg/mL", ">10 µg/mL", ">20 µg/mL"]

List reported Cytotoxicity CC50 HeLa-S3 for each of these molecules:
1. CCn1c2c(c(=O)c3cc(C(C)C)ccc31)Cc1cc(OC)c(OC)cc1-2
2. CCn1c2c(c(=O)c3cc(C(C)C)ccc31)Cc1ccccc1-2.Cl
3. CCn1c2c(c(=O)c3cc(CC(C)C)ccc31)Cc1cc(OC)ccc1-2 [Compound B12]

Response:
1. >10 µg/mL
2. >4 µg/mL
3. >2.5 µg/mL

List reported Cytotoxicity CC50 HeLa-S3 for each of these molecules:
1. CCn1c(-c2ccccc2)c(C)c(=O)c2cc(-c3ccccc3)ccc21
2. CC(C)c1ccc2c(c1)c(=O)cc(-c1ccc(Cl)c(Cl)c1)n2C
3. CC(C)c1ccc2c(c1)c(=O)cc(-c1ccn(C)c1)n2C

Response:
[">2.5 µg/mL", ">4 µg/mL", "26 µg/mL"]

List reported Cytotoxicity CC50 HeLa-S3 for each of these molecules:
1. CC(C)c1ccc2c(c1)c(=O)cc(-c1ccco1)n2C
2. CCn1c2c(c(=O)c3cc(C(C)C)ccc31)Cc1cc(OC)c(C)cc1-2
3. COc1ccc(-c2c(C)c(=O)c3c(C)c(OCC(C)C)ccc3n2C)cc1C
4. CCn1c(-c2cccc(F)c2)c(C)c(=O)c2cc(C(C)C)ccc21
5. CCCOc1ccc2c(c1)c(=O)c(C)c(-c1ccccc1)n2CC
6. CCc1ccc2c(c1)Cc1c-2n(CC)c2ccc(C(C)C)cc2c1=O
7. CCn1c(-c2ccn(C)c2)cc(=O)c2cc(C(C)C)ccc21
8. CCn1c(-c2ccccn2)cc(=O)c2cc(C(C)C)ccc21

Response:
>20 µg/mL
>2.5 µg/mL
>4 µg/mL
7.0 µg/mL
>10 µg/mL
>1 µg/mL
>20 µg/mL
>100 µg/mL

This collection of values is drawn from patent US7109338B2.
